- target-desc: T1, human BCMA-His (ACRO, product catalog No. BCA-H522y) (human, UniProt Q02223 1-54, biotin-conjugated in the ELISAs of Examples 5 and 6.1 (site not stated))
- T1 construct: Bought protein; also called BCMA-His protein; biotin-conjugated recombinant BCMA-His protein; not shown: His tag
- T1 sequence (looked up): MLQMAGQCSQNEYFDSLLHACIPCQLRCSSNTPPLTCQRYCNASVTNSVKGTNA
- assay-text: competitive ELISA: antibody blocks binding of biotin-BCMA-His to coated APRIL
readout-name: IC50 (nM)
Report as a plain number; the unit nM is understood.

For orientation, consider the following solved cases.
binder | readout-name | number
1A10-Fc (antibody, human IgG1, V domains shown, also called anti-human BCMA VHH-Fc chimeric antibody 1A10-Fc) VH: QVQLVESGGGSVQAGGSLRLSCAASGYSSNVACMAWYRQAPGKEREWVATIVADFGTTNYAASVKGRFTISQDNAKNTVYLQMNSLKPEDSAMYYCAATQRGGIDWCDEINYWGQGTLVTVSS | IC50 | 0.41
1A11-Fc (antibody, human IgG1, V domains shown, also called anti-human BCMA VHH-Fc chimeric antibody 1A11-Fc) VH: QVQLVESGGGSVQAGGSLRLSCAASGVTFNSACMGWFRQAPGKEREGVARIETGYGGTVYADSVKGRFTISRDNAKNTVYLQMNSLKPEDTAMYYCAAKRSWCTPTWWHELDYNYWGQGTQVTVSS | IC50 | 0.76
1A1-Fc (antibody, human IgG1, V domains shown, Camel VHH fused to human IgG1 Fc; also called anti-human BCMA VHH-Fc chimeric antibody 1A1-Fc) VH: QVQLVESGGGSVQAGGSLRLSCTASGYTFRGWNKHWYRQAPGKERELVSSIFRDGKTAYTDSVKGRFTISQDNADATVYLQMNSLKPEDTAMYYCKYDLPGSGLPAFWGQGTLVTVSS | IC50 | 0.34

Here is the next item to consider.
Report IC50 for 1B10-Fc (antibody, human IgG1, V domains shown, Camel VHH fused to human IgG1 Fc; also called anti-human BCMA VHH-Fc chimeric antibody 1B10-Fc) VH: EVQLVESGGGSVQAGGSLRLSCTASGYTFRGWNKHWYRQAPGKERELVSSIFRDGKTAYTDSVKGRFTISQDSADATVYLQMNSLKPEDTAMYYCKYDLPGSGLPEFWGQGTLVTVSS please.
0.26
